- System: human ACE
- experiment notes: In vitro degradation in the presence of human ACE
- Format: in vitro ADME
- test parameters: human converting enzyme (human ACE); peptide 100 nM, human converting enzyme 5 mU, pH 7.5; T240 min; without captopril; read-out: percentage of peptide assayed relative to the control
Residues, ends and D or L forms follow the SMILES beside them.
readout name: remaining at 4 h, 100 nM (%)
Only the number, expressed in %, is required.

CC(=O)N[C@@H](CO)C(=O)N[C@@H](CC(=O)O)C(=O)N[C@@H](CCCCN)C(=O)N1CCC[C@H]1C(N)=O [AcSDKP-NH2, N-acetyl-Ser-Asp-Lys-Pro-NH2] (Ac-SDKP-NH2) :: 107

Could you now look at the following compound, please?
## Task Recall and state the measured remaining at 4 h, 100 nM for CC(=O)N[C@@H](CO)C(=O)N[C@@H](CC(=O)O)C(=O)N[C@@H](CCCCN)C(=O)N1CCC[C@H]1C(=O)O [AcSDKP, N-acetyl-Ser-Asp-Lys-Pro] (Ac-SDKP-OH; C-terminus assumed) .
## Result 7

From: patent US7601333B2
